Documented residual activity across a set of compounds
# tested system: CAMK2B (human) (UniProt Q13554)
# Sequence (Q13554 whole entry, looked up): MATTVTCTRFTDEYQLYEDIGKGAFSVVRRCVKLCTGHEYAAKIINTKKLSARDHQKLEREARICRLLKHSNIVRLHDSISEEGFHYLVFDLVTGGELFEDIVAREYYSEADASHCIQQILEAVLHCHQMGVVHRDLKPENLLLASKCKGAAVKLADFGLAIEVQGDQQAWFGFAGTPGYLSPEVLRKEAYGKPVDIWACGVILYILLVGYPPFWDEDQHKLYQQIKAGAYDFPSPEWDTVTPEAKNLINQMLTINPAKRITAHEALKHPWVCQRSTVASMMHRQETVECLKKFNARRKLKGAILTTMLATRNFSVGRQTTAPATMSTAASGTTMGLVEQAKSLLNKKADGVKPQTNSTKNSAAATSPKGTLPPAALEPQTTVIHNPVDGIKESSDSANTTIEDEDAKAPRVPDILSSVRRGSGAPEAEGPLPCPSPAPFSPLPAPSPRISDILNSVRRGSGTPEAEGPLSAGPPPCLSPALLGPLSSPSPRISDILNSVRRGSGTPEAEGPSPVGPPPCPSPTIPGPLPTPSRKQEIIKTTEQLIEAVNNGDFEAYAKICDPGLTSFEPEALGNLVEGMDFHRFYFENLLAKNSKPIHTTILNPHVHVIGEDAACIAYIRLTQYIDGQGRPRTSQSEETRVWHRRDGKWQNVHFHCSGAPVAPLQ
# assay procedure: radiometric filter-binding kinase assay, Kinase HotSpot
# experimental context: compound 0.5 µM; ATP 10 µM

>  <smiles string>
c1ccc(-c2n[nH]c3c2oc2ccccc23)cc1

>  <residual activity [%]>
101

$$$$
>  <smiles string>
Cc1ccc(S(=O)(=O)/C=C/C#N)cc1

>  <residual activity [%]>
106

$$$$
>  <smiles string>
O=C1NC(=O)/C(=C/c2ccc3c(c2)OC(F)(F)O3)S1

>  <residual activity [%]>
99.8

$$$$
>  <smiles string>
Nc1ncnc2[nH]nc(Nc3ccc(F)cc3)c12

>  <residual activity [%]>
97.7

$$$$
>  <smiles string>
CCC(=O)Nc1ccc2ncnc(Nc3cccc(Br)c3)c2c1

>  <residual activity [%]>
105

$$$$
>  <smiles string>
Nc1cccc(-c2cc3c(Oc4cccc(O)c4)ncnc3[nH]2)c1

>  <residual activity [%]>
101

$$$$
>  <smiles string>
COc1ccc(COc2ccc(Cc3cnc(N)nc3N)cc2OC)cc1

>  <residual activity [%]>
100

$$$$
>  <smiles string>
O=C1NC(=O)C(c2cn(CCCn3ccnc3)c3ccccc23)=C1Nc1ccccc1

>  <residual activity [%]>
93.8

$$$$
>  <smiles string>
CCCC(=O)Oc1ccc2[nH]c(C(=O)c3cc4ccccc4[nH]3)cc2c1

>  <residual activity [%]>
90

$$$$
>  <smiles string>
COc1cc2ncnc(Nc3cccc(Cl)c3)c2cc1OC

>  <residual activity [%]>
91.2

$$$$
>  <smiles string>
N#CC(C#N)=C(N)/C(C#N)=C/c1ccc(O)cc1

>  <residual activity [%]>
93.3

$$$$
>  <smiles string>
c1ccc(-c2n[nH]cc2-c2ccnc3ccccc23)nc1

>  <residual activity [%]>
97.2

$$$$
